From: patent US11208399B2

Reported IC50 is given for each of the following compounds.
test system: NF-kB-dependent TNF-α secretion; assay: TNF-α secretion assay in THP-1 cells (counter screen, HTRF); format: cell-based; conditions: Homo sapiens, Pam3CSK4-stimulated, 3 hours

Before answering, review these 3 worked examples.
>>> df
                                   compound  result_value
0  Oc1cc(C(F)(F)F)cc(Cl)c1-c1ccc(N[C@H]2C[C@H](O)C2)nn1 [Ex 32]         85 µM
1  Cc1cc(C(F)(F)F)cc(O)c1-c1ccc(NC[C@](C)(O)C(F)(F)F)nn1 [Ex 78]      > 100 µM
2  Oc1cc(Cl)cc(Cl)c1-c1ccc(NC2CC2)nn1 [Ex 44]      > 100 µM

For the compound shown here, CN1CCC[C@@H](Nc2ccc(-c3c(O)cc(Cl)cc3C(F)(F)F)nn2)C1 [Ex 51] , give the reported IC50.
> 100 µM

Same question for Cc1cc(C(F)(F)F)cc(O)c1-c1ccc(Nc2cccnc2)nn1 [Ex 46] please.
> 100 µM

Also OCCNc1ccc(-c2c(O)cc(C(F)(F)F)cc2Cl)nn1 [Ex 37] , if possible.
> 100 µM

Same for CN1CCC[C@@H](Nc2cc(C(F)(F)F)c(-c3ccc(Cl)cc3O)nn2)C1 [Ex 70]
> 100 µM

Also Cc1cc(C(F)(F)F)cc(O)c1-c1ccc(NC[C@@H](O)C(C)C)nn1 [Ex 90a] ?
> 33 µM

And for Cc1cc(-c2c(C)cc(C(F)(F)F)cc2O)nnc1NC1CCC(=O)N(C)C1 (stereo not drawn) [Ex 99] ?
> 100 µM

###

IC50 by entry:
System: NF-kB-dependent TNF-α secretion
Assay: TNF-α secretion assay in THP-1 cells (counter screen, HTRF)
Type: cell-based
Conditions: Homo sapiens, Pam3CSK4-stimulated, 3 hours
Procedure: Monocytic THP-1 cells were maintained according to providers' instructions in RPMI media as described above. […] Experimental compounds were prepared and added as described above. […] 10 μL supernatant was removed, and TNF-α levels were monitored using an HTRF assay (CisBio, #62TNFPEC) according to manufacturers' instructions. Viability was monitored as described above. […]

Use these answered entries as a reference point.
>>> print(df.to_string())
                                   compound  result_value
0  Cc1cc(C(F)(F)F)cc(O)c1-c1ccc(N[C@@H]2CCCN(C)C2)nn1      > 100 µM
1  Cc1cc(C(F)(F)F)cc(O)c1-c1ccc(N[C@@H]2CCCN[C@@H]2C)nn1 [Ex 91b]      > 100 µM

What value of IC50 has been reported for the following compound? Cc1cc(C(F)(F)F)cc(O)c1-c1ccc(NC[C@@](C)(O)CO)nn1 [Ex 88b]
> 100 µM

// same read-out, input: "Cc1cc(-c2c(C)cc(C(F)(F)F)cc2O)nnc1N[C@@H]1CCCN(C)C1"
> 33 µM

What do we get for Cc1cc(C(F)(F)F)cc(O)c1-c1ccc(N[C@H]2CC[C@H]3CC[C@@H]2N3CCO)nn1 (single isomer, unassigned) [Ex 86a] ?
> 100 µM

###

Listed here are compounds together with their documented pIC50.
tested on: NF-kB-dependent TNF-α secretion; assay: TNF-α secretion assay in THP-1 cells (counter screen, HTRF); assay type: cell-based; conditions: Homo sapiens, Pam3CSK4-stimulated, 3 hours
pIC50: −log10 of the molar value.

                                   compound  test_readout  result_value
0  Cc1cc(C(F)(F)F)cc(O)c1-c1ccc(N[C@H]2CC[C@H]3CC[C@@H]2N3C)nn1 (single isomer, unassigned) [Ex 85a]         pIC50        < 4.00
1  Cc1cc(C(F)(F)F)cc(O)c1-c1ccc(N[C@H]2CCCN(C)C2)nn1         pIC50        < 4.00
2  Cc1cc(C(F)(F)F)cc(O)c1-c1ccc(NC[C@@H]2C[C@@H](F)CN2)nn1         pIC50        < 4.00
3  Cc1cc(C(F)(F)F)cc(O)c1-c1ccc(NC(C)(C)CO)nn1         pIC50        < 4.00

Name the recorded pIC50 for "Cc1cc(C(F)(F)F)cc(O)c1-c1ccc(NCC(O)(C(F)(F)F)C(F)(F)F)nn1" .
< 4.48

# repeat for "Cc1cc(C(F)(F)F)cc(O)c1-c1ccc(NC[C@@H]2CCCCN2)nn1"
< 4.00

Same for "Cc1cc(C(F)(F)F)cc(O)c1-c1cc(C(F)(F)F)c(N[C@@H]2CCCN(C)C2)nn1"
< 4.00

Same question, "Cc1cc(C(F)(F)F)cc(O)c1-c1ccc(N[C@H]2CCCNC2)nn1" this time
< 4.00

What would you report for "Cc1cc(C(F)(F)F)cc(O)c1-c1ccc(NCC(C)(C)N(C)C)nn1" ?
< 4.00

Repeat with "Cc1cc(C(F)(F)F)cc(O)c1-c1ccc(NC[C@H]2CCCCN2)nn1"
< 4.00

###

molecules and their reported IC50
tested on: NF-kB-dependent TNF-α secretion; assay: TNF-α secretion assay in THP-1 cells (counter screen, HTRF); assay type: cell-based; conditions: Homo sapiens, Pam3CSK4-stimulated, 3 hours

Reference set (2 entries):
In [3]: df
Out[3]:
                            chemical_string  result_value
0  Cc1cc(C(F)(F)F)cc(O)c1-c1ccc(Nc2cncnc2)nn1         25 µM
1  Cc1cc(C(F)(F)F)cc(O)c1-c1cc(C(F)(F)F)c(N[C@H]2C[C@@](C)(O)C2)nn1      > 100 µM

The record that follows has no IC50 shown yet.
Would you mind telling me what IC50 value was observed for "Cc1cc(C(F)(F)F)cc(O)c1-c1ccc(N[C@H]2CCC[C@H](O)C2)nn1" ?
84 µM

###

Examples of compounds with documented pIC50 follow.
system: NF-kB-dependent TNF-α secretion; assay: TNF-α secretion assay in THP-1 cells (counter screen, HTRF); format: cell-based; conditions: Homo sapiens, Pam3CSK4-stimulated, 3 hours
pIC50: −log10 of the molar value.

These recorded examples may help you get a feel for the data.
In [3]: df
Out[3]:
                                   compound  result_value
0  Cc1cc(C(F)(F)F)cc(O)c1-c1ccc(NC[C@@H]2CCCCN2CCO)nn1 [Ex 84b]        < 4.48
1  Cc1cc(C(F)(F)F)cc(O)c1-c1ccc(O[C@@H]2CCCN(C)C2)nn1        < 4.00

Would you kindly look at the next entry?
Returns the measured pIC50 for the input compound. Input: Cc1cc(C(F)(F)F)cc(O)c1-c1ccc(N[C@H]2CCCN3CCC[C@@H]23)nn1 [Ex 83b]
< 4.00

###

pIC50 for assorted compounds
Tested on: NF-kB-dependent TNF-α secretion
Assay: TNF-α secretion assay in THP-1 cells (counter screen, HTRF)
Type: cell-based
Conditions: Homo sapiens, Pam3CSK4-stimulated, 3 hours
Method: Monocytic THP-1 cells were maintained according to providers' instructions in RPMI media as described above. […] Experimental compounds were prepared and added as described above. […] 10 μL supernatant was removed, and TNF-α levels were monitored using an HTRF assay (CisBio, #62TNFPEC) according to manufacturers' instructions. Viability was monitored as described above. […]
pIC50: −log10 of the molar value.

# example entries with known answers
>>> print(df.to_string())
                                   compound                     study_target  result_value
0  Cc1ncccc1CNc1ccc(-c2c(O)cc(Cl)cc2C(F)(F)F)nn1 [Ex 35]  NF-kB-dependent TNF-α secretion        < 4.00
1  Cc1cc(C(F)(F)F)cc(O)c1-c1ccc(N[C@H]2C[C@](O)(C(F)(F)F)C2)nn1 [Ex 67]  NF-kB-dependent TNF-α secretion          4.34
2  Cc1cc(-c2c(C)cc(C(F)(F)F)cc2O)nnc1NCC(C)(C)O [Ex 72]  NF-kB-dependent TNF-α secretion        < 4.00
3  Cc1cc(C(F)(F)F)cc(O)c1-c1nnc(N[C@@H]2CCCN(C)C2)c(C)c1C [Ex 40]  NF-kB-dependent TNF-α secretion        < 4.48
4  Oc1cc(C(F)(F)F)cc(Cl)c1-c1ccc(N[C@H]2C[C@@H](O)C2)nn1 [Ex 31]  NF-kB-dependent TNF-α secretion        < 4.00

Then this compound:
Request: pIC50, test system NF-kB-dependent TNF-α secretion, entry Cc1cc(-c2c(C)cc(C(F)(F)F)cc2O)nnc1N[C@H]1C[C@@](C)(O)C1 [Ex 54]
4.46
